Measured melting point values are reported for all entries that follow.

Some solved entries appear below for comparison.
{"molecule": "O=C(NO)[C@@H](Cc1ccccc1)NS(=O)(=O)c1ccc(-n2cc(CCN3C(=O)c4cc(Br)c(Br)cc4C3=O)nn2)cc1 [Compound 10b]", "melting point": "187 to 189 °C"}
{"molecule": "O=C(O)[C@@H](Cc1ccccc1)NS(=O)(=O)c1ccc(-n2cc(CCn3nc4c(Br)c(Br)c(Br)c(Br)c4n3)nn2)cc1 [Compound 9d]", "melting point": "127 to 130 °C"}
{"molecule": "O=C(NO)[C@@H](Cc1ccccc1)NS(=O)(=O)c1ccc(-n2cc(CCN3C(=O)c4ccccc4C3=O)nn2)cc1 [Compound 10a]", "melting point": "177 °C (dec.)"}
{"molecule": "O=C(NO)[C@@H](Cc1ccccc1)NS(=O)(=O)c1ccc(-n2cc(CCN3C(=O)c4c(Br)c(Br)c(Br)c(Br)c4C3=O)nn2)cc1 [Compound 10c]", "melting point": "195 to 197 °C"}
{"molecule": "O=C(O)[C@H](Cc1ccccc1)NS(=O)(=O)c1ccc(-n2cc(CCn3nc4ccccc4n3)nn2)cc1 [Compound 9c]", "melting point": "227 to 228 °C"}

For O=C(NO)[C@@H](Cc1ccccc1)NS(=O)(=O)c1ccc(-n2cc(CCN3C(=O)c4ccc(Br)cc4C3=O)nn2)cc1 [Compound 10d] the molecule record lists melting point as 104 °C (dec.)

For Cc1ccc2c(c1)C(=O)N(CCc1cn(-c3ccc(S(=O)(=O)N[C@H](Cc4ccccc4)C(=O)NO)cc3)nn1)C2=O [Compound 10e] the molecule record lists melting point as 143 to 145 °C

For O=C(O)[C@@H](Cc1ccccc1)NS(=O)(=O)c1ccc(-n2cc(CCn3nc4ccccc4n3)nn2)cc1 [Compound 9b] the molecule record lists melting point as 246 °C (dec.)

Recorded values, source paper PMC8467962.
